These entries and their values trace back to patent US20240398805A1.

- System: HCC827-YVMA cells (human ERBB2 exon20 insertion mutant A775_G776ins YVMA)
- experiment: Cell growth inhibition (CellTiter-Glo, 3 days) in HCC827-YVMA
- Type: cell-based
- condition: 72 h, 3 days after administration
As shown below, each of these compounds has a reported GI50 value.

| compound | GI50 |
| --- | --- |
| C=CC(=O)N1CCC(Nc2cc3c(Nc4ccc(Oc5ccnc(N6CC(C(C)(C)O)C6)c5)cc4F)ncnc3cc2OC)CC1 | 100 to 300 nM |
| C=CC(=O)N1CCC(Nc2cc3c(Nc4ccc(Oc5ccnc(N6CCC[C@@H](N)C6)c5)cc4F)ncnc3cc2OC)CC1 | 600 to 1000 nM |
| C=CC(=O)N1CCC(Nc2cc3c(Nc4ccc(Oc5ccnc(N6CCCC(C)(O)C6)c5)cc4F)ncnc3cc2OC)CC1 (stereo not shown) | < 30 nM |
| C=CC(=O)N1CCC(Nc2cc3c(Nc4ccc(Oc5ccnc(N6CCC(CO)(CO)C6)c5)cc4F)ncnc3cc2OC)CC1 | 100 to 300 nM |

====

List of GI50 values.
- Tested on: HCC827-YVMA cells (human ERBB2 exon20 insertion mutant A775_G776ins YVMA)
- experiment: Cell growth inhibition (CellTiter-Glo, 3 days) in HCC827-YVMA
- Type: cell-based
- condition: 72 h, 3 days after administration

| compound | GI50 |
| --- | --- |
| C=CC(=O)N1CCC(Nc2cc3c(Nc4ccc(Oc5ccnc(N6CCCN(C)CC6)c5)cc4F)ncnc3cc2OC)CC1 [Example 242] | 100 to 300 nM |
| C=CC(=O)N1CCC(Nc2cc3c(Nc4ccc(Oc5ccnc(N6CCC(C)(O)C6)c5)cc4F)ncnc3cc2OC)CC1 (stereo not drawn) [Example 149] | 60 to 100 nM |
| C=CC(=O)N1CC2(CC(Nc3cc4c(Nc5ccc(Oc6ccn(-c7cnc(OC)nc7)n6)cc5F)ncnc4cc3OC)C2)C1 [Compound 84] | ≥ 1000 nM |
| C=CC(=O)N1CCC(Nc2cc3c(Nc4ccc(Oc5ccn(-c6cc(F)c(C)cn6)n5)c(Cl)c4)ncnc3cc2OC)CC1 [Example 17] | 600 to 1000 nM |
| C=CC(=O)N1CCC(Nc2cc3c(Nc4ccc(Oc5ccnc(N6CCOC[C@H]6CO)c5)cc4F)ncnc3cc2OC)CC1 [Example 126] | 100 to 300 nM |
| C=CC(=O)N1CCC(Nc2cc3c(Nc4ccc(Oc5ccn(-c6cnc(OC)nc6)n5)cc4F)ncnc3cc2OC)CC1 [Compound 1] | 60 to 100 nM |
| C=CC(=O)N1CCC(Nc2cc3c(Nc4ccc(Oc5ccn(-c6cnc(C)nc6)n5)cc4F)ncnc3cc2OC)CC1 [Example 92] | < 30 nM |
| C=CC(=O)N1CCC(Nc2cc3c(Nc4ccc(OCc5ccccn5)c(Cl)c4)ncnc3cc2OCCN2CCOCC2)CC1 [Example 95] | < 30 nM |
| C=CC(=O)N1CCC(Nc2cc3c(Nc4ccc(Oc5ccnc(N6CCOCC6)c5)cc4F)ncnc3cc2OC)CC1 [Compound 35] | < 30 nM |
| C=CC(=O)N1CCC(Nc2cc3c(Nc4ccc(Oc5ccnc(N6CC[C@@H](C)C6)c5)cc4F)ncnc3cc2OC)CC1 [Example 197] | < 30 nM |
| C=CC(=O)N1CCC(Nc2cc3c(Nc4ccc(Oc5ccnc(N6CCC(C)(OC)CC6)c5)cc4F)ncnc3cc2OC)CC1 [Example 129] | 60 to 100 nM |
| C=CC(=O)N1CCC(Nc2cc3c(Nc4ccc(Oc5ccnc(N6CCN(C)[C@H](C)C6)c5)cc4F)ncnc3cc2OC)CC1 [Example 180] | 30 to 60 nM |
| C=CC(=O)N1CCC(Nc2cc3c(Nc4ccc(Oc5ccnc(N6CCCC(C#N)C6)c5)cc4F)ncnc3cc2OC)CC1 (stereo not drawn) [Example 221] | < 30 nM |
| C=CC(=O)N1CCC(Nc2cc3c(Nc4ccc(Oc5ccnc(N6CCOC[C@@H]6C)c5)cc4F)ncnc3cc2OC)CC1 [Example 135] | 30 to 60 nM |
| C=CC(=O)N1CCC(Nc2cc3c(Nc4ccc(Oc5ccnc(N6CCC(C)(O)CC6)c5)cc4F)ncnc3cc2OC)CC1 [Example 128] | 100 to 300 nM |
| C=CC(=O)N1CCC(Nc2cc3c(Nc4ccc(Oc5ccnc(N6CC(C)(OC)C6)c5)cc4F)ncnc3cc2OC)CC1 [Example 207] | < 30 nM |
| C=CC(=O)N1CCC(Nc2cc3c(Nc4ccc(Oc5ccn(-c6ccc(OC)nn6)n5)cc4F)ncnc3cc2OC)CC1 [Example 50] | 30 to 60 nM |
| C=CC(=O)N1CCC(Nc2cc3c(Nc4ccc(Oc5ccnc(N[C@H]6CCOC6)c5)cc4F)ncnc3cc2OC)CC1 [Example 247] | 30 to 60 nM |
| C=CC(=O)N1CCC(Nc2cc3c(Nc4ccc(Oc5ccnc(N6CCC(C)(C#N)C6)c5)cc4F)ncnc3cc2OC)CC1 (stereo not drawn) [Example 262] | 30 to 60 nM |
| C=CC(=O)N1CCC(Nc2cc3c(Nc4ccc(Oc5ccnc(N6CCC[C@@H](OC)C6)c5)cc4F)ncnc3cc2OC)CC1 [Example 164] | < 30 nM |
| C=CC(=O)N1CCC(Nc2cc3c(Nc4ccc(Oc5ccnc(N6C[C@@H](C)N[C@@H](C)C6)c5)cc4F)ncnc3cc2OC)CC1 [Example 154] | 300 to 600 nM |
| C=CC(=O)N1CCC(Nc2cc3c(Nc4ccc(OCc5ccccn5)c(Cl)c4)ncnc3cc2OCCN(C)C)CC1 [Example 96] | 100 to 300 nM |
| C=CC(=O)N1CCC(Nc2cc3c(Nc4ccc(Oc5nc(-c6cnc(OCC)nc6)cs5)cc4F)ncnc3cc2OC)CC1 [Example 28] | 30 to 60 nM |
| C=CC(=O)N1CCC(Oc2cc3c(Nc4ccc(Oc5ccnc(N6C[C@H](OC)[C@H](OC)C6)c5)cc4F)ncnc3cc2OC)CC1 [Example 163] | 100 to 300 nM |
| C=CC(=O)N1CCC(Nc2cc3c(Nc4ccc(Oc5ccnc(-c6nc(C)ns6)c5)cc4F)ncnc3cc2OC)CC1 [Example 192] | < 30 nM |
| C=CC(=O)N1CCC(Nc2cc3c(Nc4ccc(Oc5ccnc(N6C[C@@H]7OCCO[C@@H]7C6)c5)cc4F)ncnc3cc2OC)CC1 [Example 254] | < 30 nM |
| C=CC(=O)N1CCC(Nc2cc3c(Nc4ccc(Oc5ccnc(C(=O)O)c5)cc4F)ncnc3cc2OC)CC1 [Example 212] | ≥ 1000 nM |
